Each entry below lists one item and its recorded solubility kinetic value.
# PROTOCOL CONDITIONS: buffer; pH 7.4; 200.0 µM

O=C(NCc1cccnc1)c1cccs1
> 32.7 µg/mL
O=C(Nc1cc2c3c(c1)CC(=O)N3CCC2)c1ccc(Cl)cc1
6.6 µg/mL
CN1CC(C(=O)O)Cc2c1ccc1ccccc21 (stereo unspecified)
31.7 µg/mL
N=C1SC(CC(=O)Nc2ccc([N+](=O)[O-])cc2)C(=O)N1c1ccccc1 (stereo unspecified)
1 µg/mL

Lookup: Give recorded solubility kinetic. `COC(=O)/C=C1/SC(=NC(=O)c2ccc(F)cc2)NC1=O`
Found: > 46.2 µg/mL

Lookup: Give recorded solubility kinetic. `COc1ccc(S(=O)(=O)N2CCOc3ccccc32)cc1`
Found: 17.6 µg/mL
